The measurements presented in this section are drawn from PubChem BioAssay (Tox21).

measurementProtocol: qHTS RealTime-Glo MT Cell Viability Assay in HEK293 cells - 8 hour (AID 1224887); note: nearly all actives have a fitted effect of over 50% in size
measurementParameters: RealTime-Glo luminescence; series mostly up to 76.8 µM
Inconclusive results are not listed. Active and inactive are the calls of the source. Calls come from the whole dose curve; as a rule, active = well fitted cell-killing curve with a large enough effect in the repeat runs; inconclusive = weak or mixed curves, or effect the other way; inactive = flat fitted curve, though single readings scatter.
Classes used: label 1 for active, label 0 for inactive

INSERT INTO results (compound, classassignment) VALUES
  ('ON(Cc1ccccc1)Cc1ccccc1', 'label 0'),
  ('COc1cc2ncnc(Nc3ccc(F)c(Cl)c3)c2cc1OCCCN1CCOCC1', 'label 1'),
  ('CN(C(=O)C(Cl)Cl)c1ccc(OC(=O)c2ccco2)cc1', 'label 0'),
  ('NC(=O)Nc1ccc(Cl)cc1', 'label 0'),
  ('CC1CC(O)CC(C)(C)C1 (stereo not given)', 'label 0'),
  ('CCOCCn1c(C2CCN(CCc3ccc(C(C)(C)C(=O)O)cc3)CC2)nc2ccccc21', 'label 0'),
  ('CCCCC(CC)CNCC(CC)CCCC (stereo not given)', 'label 0'),
  ('Nc1c(I)cc(I)c(C(=O)N(CCC(=O)O)c2ccccc2)c1I', 'label 0'),
  ('CN1CCCN=C1/C=C/c1cccs1', 'label 0'),
  ('CCCCCCCCSCCO', 'label 0'),
  ('O=C(O)c1snc(Cl)c1Cl', 'label 0'),
  ('COc1cc2[nH]c(=O)[nH]c(=O)c2cc1OC', 'label 0'),
  ('Nc1nccs1', 'label 0'),
  ('CCOC(=O)c1ccccc1OC', 'label 0'),
  ('c1ccc(COCc2ccccc2)cc1', 'label 0'),
  ('CCCCCCCCCCCC[N+](C)(C)CCCS(=O)(=O)[O-]', 'label 0'),
  ('COc1cc2c(cc1OC)-c1cc(=Nc3c(C)cc(C)cc3C)n(C)c(=O)n1CC2', 'label 0'),
  ('COC(OC)(C(=O)c1ccccc1)c1ccccc1', 'label 0'),
  ('CCC(=O)OC/C=C/c1ccccc1', 'label 0'),
  ('CCc1c2c(nc3ccc(OC(=O)N4CCC(N5CCCCC5)CC4)cc13)-c1cc3c(c(=O)n1C2)COC(=O)[C@]3(O)CC', 'label 0'),
  ('CC(=O)N(c1onc(C)c1C)S(=O)(=O)c1ccc(N)cc1', 'label 0'),
  ('O=C(CCC1CCN(Cc2ccccc2)CC1)c1ccc2c(c1)NCCCC2', 'label 1'),
  ('O=[N+]([O-])c1cccc(S(=O)(=O)NCCNS(=O)(=O)c2cccc([N+](=O)[O-])c2)c1', 'label 0'),
  ('CC1=CC(=O)CC(C)(C)C1(O)/C=C/C(C)=C\C(=O)O (stereo not given)', 'label 0'),
  ('COc1ccc([C@@H]2Sc3ccccc3NC(=O)[C@@H]2O)cc1', 'label 0'),
  ('O=C(O)C(Cc1cc(I)c(O)c(I)c1)c1ccccc1 (stereo not given)', 'label 0'),
  ('CCCCC(=O)O[C@]1(C(=O)CO)CC[C@H]2[C@@H]3CCC4=CC(=O)CC[C@]4(C)[C@H]3[C@@H](O)C[C@@]21C', 'label 0'),
  ('Oc1cc(O)c(Cl)cc1Cl', 'label 0'),
  ('CC1(C)O[C@@H]2C[C@H]3[C@@H]4CCC5=CC(=O)C=C[C@]5(C)[C@H]4[C@@H](O)C[C@]3(C)[C@]2(C(=O)CO)O1', 'label 0'),
  ('CCCOC(=O)c1ccc(N)cc1', 'label 0'),
  ('CCOC(=O)C(C)Oc1ccc(Oc2nc3ccc(Cl)cc3o2)cc1 (stereo not given)', 'label 1'),
  ('O=C(C(=O)c1ccccc1)c1ccccc1', 'label 0'),
  ('Brc1cc(-c2ccc(Br)c(Br)c2Br)cc(Br)c1Br', 'label 0'),
  ('CCCCCCOC(=O)C(C)C', 'label 0'),
  ('CCCOc1ccc(S(=O)(=O)N2CCN(CC)CC2)cc1-c1nc2c(CC)n(Cc3ccccn3)nc2c(=O)[nH]1', 'label 0');
